Origin of measurements: paper PMC6812656

- procedure-details: Pharmacokinetics in SD rats
- Type: in vivo
- conditions-used: male, Sprague Dawley, rat, plasma, ip, 3 mg/kg
measurement-name: AUC(0-t) (ng·h/mL)
Reply with just the number (in ng·h/mL).

Given the entry Cc1noc(C)c1-c1cc(Cl)c(Nc2ccccc2C(=O)NO)c(Cl)c1 , report its measured AUC(0-t).
2180

###

- procedure-details: Pharmacokinetics in SD rats
- Format: in vivo
- conditions-used: male, Sprague Dawley, rat, plasma, ip, 3 mg/kg
measurement-name: Tmax (min)
Reply with just the number (in min).

Given the entry Cc1noc(C)c1-c1cc(Cl)c(Nc2ccccc2C(=O)NO)c(Cl)c1 , report its measured Tmax.
4.8
